Can you tell me max activity for the items I'm about to list?
# MEASUREMENT_NOTES: inhibitors of Toxoplasma growth in IFN-γ-primed HeLa – cell-based, ME49Luc, luciferase, 72 h, dose response (AID 1259418)
# EXPERIMENTAL_SETUP: T. gondii ME49Luc in IFN-y HeLa, active compounds read low, -100% = high-dose IFN-γ control wells; at 19.5 µM unless noted
Among all 3,400 compounds or so, about 840 (25%) were called active. About 11% were inconclusive and are not listed. Not all results are given here. Potency and affinity values are given separately.

Notebook: O=C(COc1ccc(F)cc1)Nc1ccc2c(c1)CCC(=O)N2 , max activity read as -4.48% [at 1.35 µM] (inactive)

Notebook: Cc1ccc2[nH]c(C(=O)N3CCCC3)c(NC(=O)c3ccc(Cl)cc3)c2c1 , max activity read as 45.1% [at 5 µM] (inactive)

Notebook: COc1cc(NC(=O)Nc2ccc(-c3nc(-c4cc(C)ccc4C)co3)cc2)cc(OC)c1 , max activity read as 6.94% [at 0.08 µM] (inactive)

----------
# MEASUREMENT_NOTES: inhibitors of Toxoplasma growth in IFN-γ-primed HeLa – cell-based, ME49Luc, luciferase, 72 h, dose response (AID 1259418)
# EXPERIMENTAL_SETUP: T. gondii ME49Luc in IFN-y HeLa, active compounds read low, -100% = high-dose IFN-γ control wells; at 19.5 µM unless noted
Screen size: about 3,400 compounds; about 840 (25%) were called active. About 11% were inconclusive and are not listed. A selection follows. Potency and affinity values are given separately.
ENDPOINT_LABEL: max activity

Notebook: COc1ccccc1-c1nc(C)c(-c2ccc(SCC(=O)OCc3ccccc3)nn2)s1 , max activity read as 8.29% [at 10 µM] (inactive)

Notebook: Cc1ccccc1-c1noc(-c2nnn(Cc3nc(-c4cccc(Cl)c4)oc3C)c2C)n1 , max activity read as -11.4% [at 0.16 µM] (inactive)

Notebook: COc1ccccc1-c1nc(Cn2c(=O)c3c(C)cc(C)nc3n(-c3ccccc3)c2=O)c(C)o1 , max activity read as 9.28% [at 2.6 µM] (inactive)

Notebook: CCc1nc(OCC(=O)Nc2cc(Cl)c(OC)cc2OC)c2ccccc2n1 , max activity read as 17% [at 0.16 µM] (inactive)

----------
# MEASUREMENT_NOTES: inhibitors of Toxoplasma growth in IFN-γ-primed HeLa – cell-based, ME49Luc, luciferase, 72 h, dose response (AID 1259418)
# EXPERIMENTAL_SETUP: T. gondii ME49Luc in IFN-y HeLa, active compounds read low, -100% = high-dose IFN-γ control wells; at 19.5 µM unless noted
About 840 (25%) of roughly 3,400 compounds were called active. About 11% were inconclusive and are not listed. The list is a sample of the results. Measured potencies and affinities stand elsewhere.
Can you tell me max activity for the items I'm about to list?

Notebook: O=C(NC1CCCCC1)N1C[C@@H]2N[C@H](C1)C2c1ccc(-c2ccc(F)cc2)cc1 (some centres undefined) , max activity read as 23.1% [at 10 µM] (inactive)

Notebook: CCOc1ccc(-c2nc(CN(c3ccccc3OCC)S(=O)(=O)c3cccs3)c(C)o2)cc1 , max activity read as 6.64% (inactive)

Notebook: C=CCNc1ncnc2c1cnn2-c1ccc(C)cc1C , max activity read as 27.6% [at 5 µM] (inactive)

Notebook: Cc1ccccc1N(Cc1nc(-c2ccc(OC(C)C)cc2)oc1C)S(=O)(=O)c1cccs1 , max activity read as 4.55% (inactive)

All figures here come from PubChem BioAssay AID1259418.
